assay: NOVARTIS: Cytotoxicity against human hepatocellular carcinoma cell line (Huh7); type: toxicity, cell-based, Huh-7; details: Huh7 cells (hepatocellular carcinoma cell line)
Kindly state CC50 for each of the entries shown.

Worked cases, answers included:
Compound: COc1cc2c(cc1OC)C(CCCCCl)=NC(C)(C)C2
CC50: > 100 µM
//
Compound: O=c1ccc2cc(Cl)c(O)c(Cl)c2o1
CC50: > 10 µM
//
Compound: CCCC[C@@H](C)[C@@H](O)[C@H]1C(=O)N[C@@H](C(C)C)C(=O)N(C)[C@H](SC)C(=O)N(C)[C@@H](CC(C)C)C(=O)N[C@@H](C(C)C)C(=O)N(C)[C@@H](CC(C)C)C(=O)N[C@@H](C)C(=O)N[C@H](C)C(=O)N(C)[C@@H](CC(C)C)C(=O)N(C)[C@@H](CC(C)C)C(=O)N(C)[C@@H](C(C)C)C(=O)N1C
CC50: 5.18 µM
//
Compound: COc1cccc(C(=O)C[n+]2cc(-c3ccc(Cl)cc3)n3c2CCC3)c1
CC50: > 100 µM

State the recorded CC50 for every item in the following list.
1. CCCCNC(=O)C(c1cccc(OC)c1)N1C(=O)c2cc(OCCCC)ccc2NC(=O)C1CO (centres undefined)
2. CCOCc1nnc(NC(=O)COc2ccc(Cl)cc2Cl)s1
3. COC(=O)c1ccc(C=NNc2cc(C)nc3ccc(OC)cc23)cc1
4. O=[N+]([O-])c1cccc(C(O)CNCc2ccc3c(c2)OCO3)c1 (centres undefined)
5. CC(C)(C[N+](C)(C)C)C1OC2CCCCC2C2C=CCCC21 (centres undefined)

stdout:
1: > 2.37 µM; 2: > 100 µM; 3: 16.5 µM; 4: > 100 µM; 5: > 100 µM

State the recorded CC50 for every item in the following list.
1. COc1cccc(C=NNC(=O)CSc2ccccc2C)c1O
2. O=C1C(NC2CCCC2)=C(N2CCCCC2)C(=O)c2ccccc21
3. CCn1c(CSc2nc(C)cc(C)n2)nnc1SCC(N)=O
4. C(=NNc1nc2ccccc2[nH]1)c1c[nH]c2ccccc12
5. Cc1nnc(Nc2ccc(F)cc2)c2ccccc12
6. COc1ccc(OCC(=O)Nc2cccc(NC(=O)COc3ccc(OC)cc3)n2)cc1
7. Cc1noc(C)c1S(=O)(=O)N(Cc1ccccc1)CC(O)CN1CCC(NC(=O)c2ccc(F)cc2)C1 (centres undefined)
8. CC(=O)N1CCOC1C(C)(C)CC=C(C)CCC=C(C)C (centres undefined)

stdout:
["> 100 µM", "10.1 µM", "> 10 µM", "19.2 µM", "> 10 µM", "> 100 µM", "> 10 µM", "> 100 µM"]

State the recorded CC50 for every item in the following list.
1. CN(CCCNc1ccnc2cc(Cl)ccc12)C(=O)C(C)(C)C
2. Cn1c2c([n+](C)c1CCl)C(=O)c1ccccc1C2=O
3. COc1ccc(-c2nc3cc(Cc4ccc5[nH]c(-c6ccc(OC)cc6)nc5c4)ccc3[nH]2)cc1
4. N#C/C(=C\NC1CCN(Cc2ccccc2)CC1)C(=O)c1cccs1
5. CCc1ccccc1N1C(=O)CN(Cc2ccccc2)C1=S

stdout:
1. > 10 µM
2. > 10 µM
3. 6.22 µM
4. > 10 µM
5. 78.8 µM

State the recorded CC50 for every item in the following list.
1. CN(c1ccc(Cl)cc1)S(=O)(=O)c1ccc2[nH]cc(C(=O)NCCC3=CCCCC3)c(=O)c2c1
2. COc1cncc(-c2cncc(N3CCN(c4ccncc4)CC3)n2)c1
3. COC(=O)C1=C(C)Nc2[nH]c(=S)[nH]c(=O)c2C1c1ccccc1F (centres undefined)
4. Cc1cc(Nc2cccc(F)c2)nc(NCc2ccccc2)n1
5. CC(C)CNc1nc(NCCCN(C)C)ncc1C(=O)NCc1ccccc1
6. COc1ccccc1N(CN1C(=O)c2ccc(Br)cc2C1=O)C(C)=O

stdout:
1: > 10 µM; 2: > 10 µM; 3: > 10 µM; 4: 20.8 µM; 5: > 10 µM; 6: > 10 µM

State the recorded CC50 for every item in the following list.
1. CCOC(=O)C[n+]1cc(CC)sc1N
2. CCCCNC(=O)CSCc1cnn(-c2ccccc2)c1-n1cccc1
3. CCN(CC)CCN1C(=O)c2ccc3c4c(ccc(c24)C1=O)C(=O)N(CCN(CC)CC)C3=O
4. CCOc1ccc2nc(C)cc(Nc3ccc(C)c(Cl)c3)c2c1
5. COc1cc2nc(NCC3CCCO3)n3nc(-c4ccccc4)nc3c2cc1OC (centres undefined)
6. CCCCN(CC)CCNC(=O)C1c2ccccc2C(=O)N(Cc2ccc(F)cc2)C1c1ccc(OC)cc1 (centres undefined)

stdout:
1: > 10 µM; 2: > 100 µM; 3: 0.221 µM; 4: 13.6 µM; 5: > 100 µM; 6: > 100 µM

The measured values listed here are drawn from ChEMBL document CHEMBL1156829.
